# procedure.summary: Drug metabolism in Danish Landrace pig plasma assessed as compound remaining at 432 +/- 102 MBq, iv after 5 mins
# Format: ADME, organism-based, Sus scrofa
# condition.description: read-out: Stability
property.name: remaining at 5 min

smiles_record=[11CH3]Oc1ccc(-c2ccccc2N2CCN(CCOCCC(=O)NCc3ccncc3)CC2)cc1 result=30%

* * *

Property: Ki; scope: individual molecules
# assayed.system: 5-hydroxytryptamine receptor 7 (Homo sapiens, UniProt P34969)
# Sequence (P34969 whole entry): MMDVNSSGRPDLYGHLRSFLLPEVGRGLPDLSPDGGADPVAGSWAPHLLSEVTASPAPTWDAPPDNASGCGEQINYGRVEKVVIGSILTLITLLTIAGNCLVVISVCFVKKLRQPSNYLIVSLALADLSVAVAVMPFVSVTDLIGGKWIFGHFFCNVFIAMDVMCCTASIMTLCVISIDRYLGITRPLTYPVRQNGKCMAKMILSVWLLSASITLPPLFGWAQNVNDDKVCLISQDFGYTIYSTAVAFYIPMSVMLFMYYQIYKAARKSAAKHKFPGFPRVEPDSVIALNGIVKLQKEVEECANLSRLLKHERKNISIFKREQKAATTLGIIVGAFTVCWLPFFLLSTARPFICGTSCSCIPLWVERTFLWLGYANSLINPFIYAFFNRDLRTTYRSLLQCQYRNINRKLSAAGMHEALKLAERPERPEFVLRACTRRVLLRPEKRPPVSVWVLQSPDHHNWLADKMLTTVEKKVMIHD
# procedure.summary: Displacement of [3H]5-CT from human 5HT7 receptor transfected in HEK293 cells after 60 mins
property.name: Ki

smiles_record=COc1ccc(CNC(=O)CCCCCN2CCN(c3ncccc3-c3ccncc3)CC2)cc1 property_name=Ki result="26.1 nM"
smiles_record=COc1ccc(CNC(=O)CCCCCN2CCN(c3cccnc3-c3ccncc3)CC2)cc1 property_name=Ki result="64.2 nM"
smiles_record=Cc1ccccc1-c1ccccc1N1CCN(CCOCCC(=O)NCc2ccc(F)nc2)CC1 property_name=Ki result="12.8 nM"
smiles_record=COc1ccc(-c2ccccc2N2CCN(CCOCCC(=O)NCc3ccc(F)nc3)CC2)cc1 property_name=Ki result="34.5 nM"
smiles_record=COc1ccc(CNC(=O)CCOCCN2CCN(c3ccccc3-c3ccc(F)cc3)CC2)cc1 property_name=Ki result="45.2 nM"
smiles_record=COc1ccccc1-c1cccc(N2CCN(CCOCCC(=O)NCc3ccc(F)nc3)CC2)c1 property_name=Ki result="> 1000 nM"
smiles_record=COc1ccc(CNC(=O)CCOCCN2CCN(c3cccc(-c4ccccc4OC)c3)CC2)cc1 property_name=Ki result="> 1000 nM"
smiles_record=O=C(CCCCCN1CCN(c2cccnc2-c2ccncc2)CC1)NCc1ccc(F)nc1 property_name=Ki result="66.7 nM"
smiles_record=O=C(CCOCCN1CCN(c2ccccc2-c2ccc(F)cc2)CC1)NCc1ccc(F)nc1 property_name=Ki result="15.9 nM"
smiles_record=COc1ccc(CNC(=O)CCOCCN2CCN(c3ccccc3-c3ccccc3C)CC2)cc1 property_name=Ki result="33.4 nM"
smiles_record=O=C(CCCCCN1CCN(c2ncccc2-c2ccncc2)CC1)NCc1ccc(F)nc1 property_name=Ki result="71 nM"
